system: Plasmodium berghei; assay: Screen against P. berghei liver stage (PbLuc), transformed with Luciferase, at 2uM; type: functional, HepG2; conditions: tested at 2 uM
The campaign covered roughly 68,000 compounds. About 2,700 (4%) showed an effect of 50% or more. This is one part of a sample in which strong results are shown more often than they occur.
MEASURED PARAMETER: INHIBITION (%)
Give the value, in units of %, as a plain number.

>>> test_result("CCC(C)(C)NC(=O)CN(Cc1cccc(O)c1)C1CCC(O)CC1 (stereo unspecified)")
6.85

QUERY: Entry "CCNC(=O)[C@@H]1C[C@@H](NC(=O)c2cccn2C)CN1CCCSC" : reported INHIBITION = ?
RESULT: 29.89

QUERY: # iterate: "O=C(COC[C@]12COC[C@H]1CN(C1CCC1)C2)N1CCCC1"
RESULT: -37.65

QUERY: Again, but for "CC(=O)c1ccc(S(=O)(=O)NCc2cccnc2N(C)C)cc1"
RESULT: 4.18
